The origin of these recorded values is paper PMC11347734.

SYSTEM_TESTED: MUC16 antigen (CA125) (UniProt Q8WXI7 1-14451)
MEASUREMENT_DESCRIPTION: SPR; 310 K (37 C), pH 7.2; SPR, pH 7.2, 25 C (also 37 and 42 C); 1X PBS with 1 mM MgCl2 given as flow buffer for aptamer immobilization; surface blocked with 0.1% BSA
CONDITION_PARAMETERS: protein: commercial
REPORTED_ENDPOINT: Kd (nM)
Hi! Could you send only the number? It should be in nM, unit omitted.

input: Entry under review: CTCACTATAGGGAGACAAGAATAAACGCTCAA (ssDNA, 3'-C6 amine) [anti-MUC16 aptamer] . Reported Kd?
output: 101
